test: Ross-Miles foam height assay of aldonamides (Examples 81-84); assay type: physicochemical; settings: 0.1% aldonamide, 40° C. (if not soluble, about 5°-10° C. above Krafft point), 0 ppm hardness
Please respond with reported Foam Height Initial for every item in the list.
API: value field is a number in mm; no unit string.

Dear colleague, I am looking for the recorded Foam Height Initial of the following compound: CCCCCCCCCCCCOC(=O)CNC(=O)[C@H](O)[C@@H](O)[C@H](O)[C@H](O)CO [N--D-Gluconyl C12 Glycinate, N-D-Gluconyl Dodecyl Glycinate]
183

Thanks! And CCCCCCCCCNC(=O)[C@H](O)[C@@H](O)[C@H](O[C@@H]1O[C@H](CO)[C@H](O)[C@H](O)[C@H]1O)[C@H](O)CO [C9 D-Lactobionamide, Nonyl D-Lactobionamide] ?
0

Now consider CCCCCCCCCCCCOCCCNC(=O)[C@H](O)[C@@H](O)[C@H](O[C@H]1O[C@H](CO)[C@@H](O)[C@H](O)[C@H]1O)[C@H](O)CO [C12 Oxypropyl D-Maltobionamide, Dodecyloxypropyl D-Maltobionamide] .
163

Query CCCCCCCCCCCCOCCCNC(=O)[C@H](O)[C@@H](O)[C@H](O)[C@H](O)CO [C12 Oxypropyl D-Gluconamide] next
200

Proceed to CCCCCCCCCCCCOC(=O)C(C)NC(=O)[C@H](O)[C@@H](O)[C@H](O)[C@H](O)CO (mixture of isomers) [N--D-Gluconyl C12 DL-Alaninate, N-D-Gluconyl Dodecyl DL-Alaninate]
197

Same question, CCCCCCCC/C=C\CCCCCCCCNCCCNC(=O)[C@H](O)[C@@H](O)[C@H](O[C@@H]1O[C@H](CO)[C@H](O)[C@H](O)[C@H]1O)[C@H](O)CO [Oleylaminopropyl D-Lactobionamide] this time
169

Subsequent entry: CCCCCCCCNC(=O)[C@H](O)[C@@H](O)[C@H](O)[C@H](O)CO [C8 D-Gluconamide]
0

Also CCCCCCCC/C=C\CCCCCCCCNCCCNC(=O)[C@H](O)[C@@H](O)[C@H](O)[C@H](O)CO [Oleylaminopropyl D-Gluconamide] , if possible.
158
